# Assay Info: Evaluation of conversion rate to active form in buffer solution (Experimental Example 1)
# Format: physicochemical
# Conditions: pH6.5, 1 hr, 37° C., 25 umol/L in buffer solution
# Description: For Examples 1 to 16 and Comparative Examples 1 to 14, the attrition rate of the test compound and the conversion rate of the test compound to Alvocidib in a buffer solution were calculated by the following method. Examples 1 to 16 and Comparative Examples 1 to 14 were each left in buffer solutions adjusted to pH 5.0, 5.5, 6.0, 6.5, 7.0 and 7.4, respectively, at a concentration of 25 umol/L at 37° C. […]
Where a name gives a salt, the structure may show the parent alone.
Reported values of Residual rate for individual entries
Unit % implied. Number only.

I have this compound here, CCCN(CC1CCCCN1)C(=O)Oc1cc(O)c2c(=O)cc(-c3ccccc3Cl)oc2c1[C@H]1CCN(C)C[C@H]1O (stereo partly shown) [Example 9] , and I need its recorded Residual rate.
77.3

More entries:
I have this compound here, CCN(CC1CCCCN1)C(=O)Oc1cc(O)c2c(=O)cc(-c3ccccc3Cl)oc2c1[C@H]1CCN(C)C[C@H]1O (stereo partly shown) [Example 7, dihydrochloride] , and I need its recorded Residual rate.
84.0

I have this compound here, CCN(C[C@H]1CCCCN1)C(=O)Oc1cc(O)c2c(=O)cc(-c3ccccc3Cl)oc2c1[C@H]1CCN(C)C[C@H]1O [Example 2] , and I need its recorded Residual rate.
75.4

I have this compound here, CN1CC[C@H](c2c(OC(=O)N(CCCC(F)(F)F)CC3CCCCN3)cc(O)c3c(=O)cc(-c4ccccc4Cl)oc23)[C@H](O)C1 (stereo partly shown) [Example 14] , and I need its recorded Residual rate.
22.9

I have this compound here, CN1CC[C@H](c2c(OC(=O)N(CCF)CC3CCCCN3)cc(O)c3c(=O)cc(-c4ccccc4Cl)oc23)[C@H](O)C1 (stereo partly shown) [Example 11] , and I need its recorded Residual rate.
35.6

I have this compound here, CN1CC[C@H](c2c(OC(=O)N(C)C[C@H]3CCCCN3)cc(O)c3c(=O)cc(-c4ccccc4Cl)oc23)[C@H](O)C1 [Example 4] , and I need its recorded Residual rate.
65.1

I have this compound here, CN1CC[C@H](c2c(OC(=O)N(C)CC3CCCCN3)cc(O)c3c(=O)cc(-c4ccccc4Cl)oc23)[C@H](O)C1 (stereo partly shown) [Example 8] , and I need its recorded Residual rate.
77.7

I have this compound here, CCCN(C[C@@H]1CCCCN1)C(=O)Oc1cc(O)c2c(=O)cc(-c3ccccc3Cl)oc2c1[C@H]1CCN(C)C[C@H]1O [Example 5] , and I need its recorded Residual rate.
80.9

I have this compound here, CCNC(=O)Oc1cc(O)c2c(=O)cc(-c3ccccc3Cl)oc2c1[C@H]1CCN(C)C[C@H]1O [Comparative Example 1, reference compound] , and I need its recorded Residual rate.
1.0

I have this compound here, CCN(CCC1CCCCN1)C(=O)Oc1cc(O)c2c(=O)cc(-c3ccccc3Cl)oc2c1[C@H]1CCN(C)C[C@H]1O (stereo partly shown) [Example 16] , and I need its recorded Residual rate.
61.4

I have this compound here, CN1CC[C@H](c2c(OC(=O)N(CCC(F)(F)F)CC3CCCCN3)cc(O)c3c(=O)cc(-c4ccccc4Cl)oc23)[C@H](O)C1 (stereo partly shown) [Example 13] , and I need its recorded Residual rate.
22.2

I have this compound here, CCN(C[C@@H]1CCCCN1)C(=O)Oc1cc(O)c2c(=O)cc(-c3ccccc3Cl)oc2c1[C@H]1CCN(C)C[C@H]1O [Example 1, ditrifluoroacetate] , and I need its recorded Residual rate.
82.0

I have this compound here, CN1CC[C@H](c2c(OC(=O)N(Cc3ccccc3)CC3CCCCN3)cc(O)c3c(=O)cc(-c4ccccc4Cl)oc23)[C@H](O)C1 (stereo partly shown) [Example 15] , and I need its recorded Residual rate.
56.3
